System: Plasmodium berghei
Test: Screen against P. berghei liver stage (PbLuc), transformed with Luciferase, at 10uM
Type: functional, HepG2
Conditions: tested at 10 uM
Among all 69,000 compounds or so, about 8,600 (12%) showed an effect of 50% or more. The list comes from a sample in which strong results are over-represented; it also holds close analogues and randomly drawn compounds.
INHIBITION strictly under 40% means Criterion met; at 40% or over means Criterion not met.

Query string: Is INHIBITION of O=C(NCc1ccccc1)c1nn(C2CCS(=O)(=O)C2)c2c1CCCC2 (stereo not drawn) strictly below 40%?
Result string: Criterion met

Query string: Quick check: INHIBITION of COc1ccc(-c2nnsc2C(=O)N2CCSCC2)cc1 under 40%?
Result string: Criterion met

Query string: Item Cc1nc2ccc(Cl)cn2c1CN1CCN(S(=O)(=O)N2CCCC2)CC1 : INHIBITION beneath 40%, strictly?
Result string: Criterion not met

Query string: In plain terms, does CC(C)(C)NC(=O)c1nn(C2CCS(=O)(=O)C2)c2c1CCCC2 (stereo not drawn) come in under 40% for INHIBITION?
Result string: Criterion met

Query string: Below 40% on INHIBITION? Entry COC1CCN(c2ccc(F)cc2CN(C)CC(N)=O)CC1
Result string: Criterion met

Query string: Item CCn1cc(C(=O)NCc2csc(C3CC3)n2)c(C)n1 : INHIBITION beneath 40%, strictly?
Result string: Criterion not met

Query string: Is 40% strictly greater than the compound's reported INHIBITION? compound: Cc1cnn(CC2CCCCN2CCCS(C)(=O)=O)c1 (stereo not drawn)
Result string: Criterion met

Query string: Record O=C(c1ccncc1)N1C[C@@H]2CCN(c3cccnc3)C[C@@H]2C1 : is its INHIBITION strictly below 40%?
Result string: Criterion not met

Query string: API: query returns whether the compound falls strictly under 40% in INHIBITION. Query: Cc1ccccc1C(=O)N1C[C@@H]2CCN(c3cccnc3)C[C@@H]2C1
Result string: Criterion not met

Query string: Check if INHIBITION falls below 40% for Cc1ccc2c(c1)OC1(NC2=O)C(=O)N(C)c2ccccc21 (stereo not drawn) .
Result string: Criterion met

Query string: Does COCCN1CCC(CN(CC2CCCO2)C(=O)Cc2cccs2)CC1 (stereo not drawn) have INHIBITION strictly under 40%?
Result string: Criterion met

Query string: Given O=C(Nc1ccc(Cl)cc1)c1nn(C2CCS(=O)(=O)C2)c2c1CCCC2 (stereo not drawn) , is recorded INHIBITION strictly lower than 40%?
Result string: Criterion met

Query string: Determine whether this compound shows INHIBITION lower than 40% (ties excluded): CN(C)c1ccc(C(=O)NCc2cccnc2-n2cncn2)cc1F
Result string: Criterion not met

Query string: I'd appreciate it if you could check whether CN1CCCC(c2ccc(N3CCOCC3)cn2)C1 (stereo not drawn) has INHIBITION smaller than 40%.
Result string: Criterion met

Query string: Item CCCc1ccc2oc(C(=O)N3CCC(O)CC3)c(C)c2c1 : INHIBITION beneath 40%, strictly?
Result string: Criterion met

Query string: INHIBITION strictly < 40% for this compound? O=C(c1ccsc1)N1C[C@@H]2CCN(c3cccnc3)C[C@@H]2C1
Result string: Criterion not met

Query string: is_below(INHIBITION, 40%) for Cc1ccc(C(=O)NCc2cccnc2-n2cncn2)cc1S(C)(=O)=O ?
Result string: Criterion met

Query string: In plain terms, does Cc1cc(C(=O)NCc2cccn2C)nn1C come in under 40% for INHIBITION?
Result string: Criterion met

Query string: Report whether reported INHIBITION is lower than 40% (strictly) for COCC(=O)N1CCC2(CCCN(Cc3ccc(Cl)cc3)CC2)CC1
Result string: Criterion met

Query string: Hi there! Is INHIBITION for Cc1ccc2c(cnn2CCC(=O)NCc2csc(C3CC3)n2)c1 below 40%, do you know?
Result string: Criterion met

Query string: Please check: INHIBITION for O=C(Nc1cccnc1)c1nn(C2CCS(=O)(=O)C2)c2c1CCCC2 (stereo not drawn) , strictly under 40% or not?
Result string: Criterion met

Query string: Item O=C1CCC(C(=O)Nc2cnn(-c3ccccc3Br)c2)N1 (stereo not drawn) : INHIBITION beneath 40%, strictly?
Result string: Criterion not met

Query string: I wonder whether Cc1nc(CN2CCN(S(=O)(=O)N3CCOCC3)CC2)oc1C has INHIBITION below 40%. Can you tell?
Result string: Criterion met

Query string: Confirm or reject: INHIBITION of Cc1cccc2c1cnn2CCC(=O)NCc1csc(C2CC2)n1 lies strictly below 40%
Result string: Criterion met

Query string: Report whether reported INHIBITION is lower than 40% (strictly) for O=C(Nc1ccc(Cl)cn1)c1nn(C2CCS(=O)(=O)C2)c2c1CCCC2 (stereo not drawn)
Result string: Criterion not met

Query string: Answer whether the compound Cc1cccc(C(=O)N2C[C@@H]3CCN(c4cccnc4)C[C@@H]3C2)c1 has INHIBITION strictly less than 40%
Result string: Criterion met

Query string: For CCc1nnc(CNC(=O)CCC2CCCN(C)C2)s1 (stereo not drawn) , is the recorded INHIBITION below the cut-off of 40%?
Result string: Criterion met

Query string: In plain terms, does Cc1nn(C)cc1C(=O)NCc1csc(C2CC2)n1 come in under 40% for INHIBITION?
Result string: Criterion met

Query string: Decide: INHIBITION of Cc1csc(N2CCN(CC(=O)NCc3ccccn3)CC2C)n1 (stereo not drawn) strictly below 40%?
Result string: Criterion met

Query string: Identify whether the compound Cc1nn(C)c2c(N3CCN(C(=O)C(C)C)CC3)ncnc12 records INHIBITION below 40%.
Result string: Criterion met

Query string: Please indicate whether the reported INHIBITION of CC(C)CCN1C(=O)C2(NC(=O)c3ccccc3O2)c2ccccc21 (stereo not drawn) is strictly below 40%.
Result string: Criterion not met

Query string: Would you kindly verify if INHIBITION of Cc1cccc(NC(=O)c2nn(C3CCS(=O)(=O)C3)c3c2CCCC3)n1 (stereo not drawn) is strictly less than 40%?
Result string: Criterion met
